Catalogue of pIC50 readings, one per entry.
- Subject Of Test: KRAS WT (Homo sapiens)
- Sequence (P01116 1-188 isoform P01116-2): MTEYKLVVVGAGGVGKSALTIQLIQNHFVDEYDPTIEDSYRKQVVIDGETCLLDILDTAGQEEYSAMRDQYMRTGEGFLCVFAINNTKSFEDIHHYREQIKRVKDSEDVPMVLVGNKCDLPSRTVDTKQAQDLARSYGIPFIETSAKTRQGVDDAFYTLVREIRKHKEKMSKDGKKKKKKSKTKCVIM
- Test Description: HTRF KRAS-SOS1 interaction assay, wildtype KRAS
- Experimental Parameters: binned ≤2 μM / >2 μM, read-out: Inhibition of KRAS WT (IC50)
pIC50: −log10 of the molar value.

Compound	pIC50
N#Cc1c(N)sc2c(F)ccc(-c3c(C(F)(F)F)c4c5c(nc(OC[C@@]67CCCN6C[C@H](F)C7)nc5c3F)N([C@H](CC3CC3)c3cccnc3N)CCO4)c12 (single isomer, unassigned) [Compound 753]	≥ 5.70
N#Cc1c(N)sc2cccc(-c3c(Cl)c4c5c(nc(OC[C@@]67CCCN6C[C@H](F)C7)nc5c3F)N([C@@H](c3cccnc3N)C(F)F)CCO4)c12 (single isomer, unassigned) [Compound 672]	≥ 5.70
C[C@H](c1cncnc1N)N1CCOc2c(C(F)(F)F)c(-c3ccc(F)c4sc(N)c(C#N)c34)c(F)c3nc(OCC4(CN5CCC(=CF)CC5)CC4)nc1c23 [Compound 916]	≥ 5.70
C[C@H](Oc1nc2c3c(c(C(F)(F)F)c(-c4ccc(F)c5sc(N)c(C#N)c45)c(F)c3n1)OCCN2[C@H](C)c1cccnc1N)[C@@H]1C[C@@H](F)CN1C [Compound 890]	≥ 5.70
N#Cc1c(N)sc2c(F)ccc(-c3c(C(F)(F)F)c4c5c(nc(OC[C@@]67CCCN6C[C@H](F)C7)nc5c3F)N([C@H](CCC3CC3)c3cccnc3N)CCO4)c12 (single isomer, unassigned) [Compound 606]	< 5.70
N#Cc1c(N)sc2c(F)ccc(-c3c(C(F)(F)F)c4c5c(nc(OC[C@@]67CCCN6C[C@H](F)C7)nc5c3F)N([C@@H](c3cccnc3N)C(F)F)CCO4)c12 (single isomer, unassigned) [Compound 625]	≥ 5.70
C[C@H](c1cccnc1N)N1CCOc2c(Cl)c(-c3ccc(F)c4sc(N)c(C#N)c34)c(F)c3nc(OCC45CCCN4C[C@H](OCCCP(C)(C)=O)C5)nc1c23 (single isomer, unassigned) [Compound 677]	≥ 5.70
C[C@H](c1cccnc1N)N1CCOc2c(C(F)(F)F)c(-c3ccc(F)c4sc(N)c(C#N)c34)c(F)c3nc(OCC4(CN5CC[C@@H](F)C5)CC4)nc1c23 [Compound 698]	≥ 5.70
Cc1c(F)c(N)cc(-c2nc3c4c(nc(O[C@@H](C)C5CCCN5C)nc4c2F)N([C@H](C)c2cccnc2N)CCO3)c1C(F)(F)F (single isomer, unassigned) [Compound 748]	≥ 5.70
C[C@H](c1cccnc1N)N1CCOc2c(Cl)c(-c3ccc(F)c4sc(N)c(C#N)c34)c(F)c3nc(OC[C@]45CCCN4[C@H](CN)CC5)nc1c23 [Compound 915]	≥ 5.70

* * *

Catalogue of pIC50 readings, one per entry.
- Subject Of Test: KRAS G12S (Homo sapiens, UniProt P01116, G12S)
- Sequence (P01116 1-188 isoform P01116-2 G12S): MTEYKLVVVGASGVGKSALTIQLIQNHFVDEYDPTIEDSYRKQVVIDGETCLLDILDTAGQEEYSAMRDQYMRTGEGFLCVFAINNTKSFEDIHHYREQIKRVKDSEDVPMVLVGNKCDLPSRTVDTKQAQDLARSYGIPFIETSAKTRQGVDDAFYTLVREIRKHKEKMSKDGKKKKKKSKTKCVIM
- Test Description: HTRF KRAS-SOS1 interaction assay, KRAS G12S
- Experimental Parameters: binned ≤2 μM / >2 μM, read-out: Inhibition of KRAS G12S (IC50)
pIC50: −log10 of the molar value.
Metric Name: pIC50

Molecule	Assay Result
C[C@H](c1cc(C2CC2)cnc1N)N1CCOc2c(C(F)(F)F)c(-c3ccc(F)c4sc(N)c(C#N)c34)c(F)c3nc(OC[C@@]45CCCN4C[C@H](F)C5)nc1c23 [Compound 654]	≥ 5.70
C[C@H](c1cccnc1N)N1c2nc(OC[C@@]34CCCN3C[C@H](F)C4)nc3c(F)c(-c4ccc(F)c5sc(N)c(C#N)c45)c(Cl)c(c23)OC[C@@H]1C [Compound 800]	≥ 5.70
C[C@H](c1cccnc1N)N1CCOc2c(C(F)(F)F)c(-c3ccc(F)c4sc(N)c(C#N)c34)c(F)c3nc(OCC4(CN5CC[C@@H](F)C5)CC4)nc1c23 [Compound 698]	≥ 5.70
